Origin of measurements: ChEMBL document CHEMBL3988442

Biological target: Proteasome subunit beta (Trypanosoma cruzi)
Experiment: Trypanosoma cruzi proteasome chymotrypsin-like activity (TcProtChymo) assay.
Assay type: functional
Parameters: scale not given: in the data most compounds retested in dose-response had high values
Conditions: 9.37 µM
Observable: Percent Effect (%)
Number only, in %; omit the unit.

The cases that follow already have their Percent Effect on record.
Molecule	Percent Effect (%)
CC(C)Cc1cc(C(=O)NCCc2ccc(S(C)(=O)=O)cc2)[nH]n1	12.9
CS(=O)(=O)NCC1CCCCN1C(=O)Nc1cccnc1N1CCCC1 (configuration not stated)	8.92
O=C1CCC(C(=O)NCc2nncn2-c2ccccc2)CN1 (configuration not stated)	1.8
Cc1cccc(-c2nc(CN(Cc3cccs3)CC3CCCO3)no2)c1 (configuration not stated)	7.72
Cn1cc(C(=O)NCc2cn3c(n2)CN(Cc2ccccn2)CC3)cn1	-0.254
COCc1nn(C(C)C)c2c1CCN(Cc1ccc(C)s1)C2	7.62
Cc1cnn(CCC(=O)N2C[C@H]3CC[C@@H]2CN(CC(=O)N(C)C)C3)c1	17.6
Cc1noc2ncc(C(=O)NCC3CCOC3)cc12 (configuration not stated)	6.35

QUERY: Give its Percent Effect value. Item: CCCS(=O)(=O)N1CCOCC2(CCN(c3ccccn3)C2)C1 (configuration not stated)
RESULT: 3.88

QUERY: Looking for the measured Percent Effect of `CCn1nc(C(C)C)cc1C(=O)NCCCOC` , can you help?
RESULT: 14.7

QUERY: What value of Percent Effect has been recorded for this entry: CC(C#N)CSc1ccccc1NCC(=O)Nc1ccc(F)cc1 (configuration not stated)
RESULT: 6.39

QUERY: Name the recorded Percent Effect for O=C(Nc1nncs1)NC1CCc2ccccc21 (configuration not stated) .
RESULT: 8.13
